# targetOrTestSystem: rat EP4 receptor (Rattus norvegicus, UniProt P43114)
# Construct: cells seeded on STEP plates
# Sequence (P43114 whole entry): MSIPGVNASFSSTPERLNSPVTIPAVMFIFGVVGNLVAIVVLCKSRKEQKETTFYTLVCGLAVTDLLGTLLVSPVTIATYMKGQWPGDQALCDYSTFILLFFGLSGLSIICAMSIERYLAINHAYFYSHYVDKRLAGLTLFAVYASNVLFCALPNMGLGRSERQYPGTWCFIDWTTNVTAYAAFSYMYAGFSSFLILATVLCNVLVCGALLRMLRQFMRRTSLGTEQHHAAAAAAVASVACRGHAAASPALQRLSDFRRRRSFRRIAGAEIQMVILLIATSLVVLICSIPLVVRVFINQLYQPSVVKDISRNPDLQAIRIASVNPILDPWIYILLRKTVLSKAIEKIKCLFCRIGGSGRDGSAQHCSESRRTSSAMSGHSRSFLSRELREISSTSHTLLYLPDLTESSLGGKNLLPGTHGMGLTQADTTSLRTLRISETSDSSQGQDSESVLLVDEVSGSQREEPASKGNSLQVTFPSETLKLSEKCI
# testSummary: cAMP level assay on EP4 STEP plate
# Format: cell-based
# measurementParameters: cAMP by ELISA, 30 minutes, 500 μM IBMX; read-out: STEP cell functional assay EC50 cAMP/EP4
pEC50: −log10 of the molar value.
Documented pEC50 across a set of compounds
assayEndpoint: pEC50

compound=CCC#CC[C@H](C)[C@H](O)/C=C/[C@H]1CCC(=O)N1CCCCCCC(=O)O assayendpoint=pEC50 valueobserved=9.02
compound=CCC#CC[C@H](C)[C@H](O)/C=C/[C@H]1CCC(=O)N1CCc1ccc(C(=O)O)cc1 assayendpoint=pEC50 valueobserved=9.51
compound=CC#CC[C@H](C)[C@H](O)/C=C/[C@H]1CCC(=O)N1CCCCCCC(=O)O assayendpoint=pEC50 valueobserved=8.53
compound="CCC#CC[C@H](C)[C@H](O)/C=C/[C@H]1CCC(=O)N1CCCc1ccc(C(=O)O)s1 [Example 17D]" assayendpoint=pEC50 valueobserved=8.81

* * *

Documented pEC50 across a set of compounds
# targetOrTestSystem: rat EP2 receptor (Rattus norvegicus)
# Construct: cells seeded on STEP plates
# testSummary: SEAP activity assay on EP2 STEP plate
# measurementParameters: SEAP luminescence, 6-8 hours of stimulation; read-out: STEP cell functional assay EC50 SEAP/EP2
pEC50: −log10 of the molar value.
assayEndpoint: pEC50

compound="CCC#CCC(C)[C@H](O)/C=C/[C@H]1CCC(=O)N1CCCc1ccc(C(=O)O)s1 (some centres unmarked) [Example 17F]" valueobserved="< 5.00"
compound="CCC#C[C@@H](O)/C=C/[C@H]1CCC(=O)N1CCCCCCC(=O)OC (single isomer, unassigned)" valueobserved="< 5.70"
compound="CC#CCC(C)[C@@H](O)/C=C/[C@H]1CCC(=O)N1CCCCCCC(=O)O (mixture of isomers)" valueobserved="< 5.00"
compound="CC(CC#Cc1ccccc1)[C@H](O)/C=C/[C@H]1CCC(=O)N1C/C=C\\c1ccc(C(=O)O)s1 (mixture of isomers) [Example 16C]" valueobserved="< 5.00"
compound="COC(=O)CCCCCCN1C(=O)CC[C@@H]1/C=C/[C@H](O)CCC#Cc1ccccc1 (single isomer, unassigned)" valueobserved="< 5.30"

* * *

# targetOrTestSystem: rat EP4 receptor (Rattus norvegicus)
# Construct: cells seeded on STEP plates
# testSummary: SEAP activity assay on EP4 STEP plate
# Assay type: cell-based
# measurementParameters: SEAP luminescence, 6-8 hours of stimulation; read-out: STEP cell functional assay EC50 SEAP/EP4
assayEndpoint: EC50 (µM)

compound="COC(=O)CCCCCCN1C(=O)CC[C@@H]1/C=C/[C@H](O)CCC#Cc1ccccc1 (single isomer, unassigned) [Example 5B]" assayendpoint=EC50 readoutunits=µM valueobserved=0.0415
compound="COC(=O)CCCCCCN1C(=O)CC[C@@H]1/C=C/[C@@H](O)CCC#Cc1ccccc1 (single isomer, unassigned) [Example 5A]" assayendpoint=EC50 readoutunits=µM valueobserved=0.0777
compound="CCC#CC[C@H](C)[C@H](O)/C=C/[C@H]1CCC(=O)N1CCCc1ccc(C(=O)O)s1 [Example 17D]" assayendpoint=EC50 readoutunits=µM valueobserved=0.00032
compound="O=C(O)CCCCCCN1C(=O)CC[C@@H]1/C=C/[C@H](O)CCC#Cc1ccccc1 [Example 5D]" assayendpoint=EC50 readoutunits=µM valueobserved=0.0468

* * *

Documented pEC50 across a set of compounds
# targetOrTestSystem: rat EP2 receptor (Rattus norvegicus, UniProt Q62928)
# Construct: cells seeded on STEP plates
# Sequence (Q62928 whole entry): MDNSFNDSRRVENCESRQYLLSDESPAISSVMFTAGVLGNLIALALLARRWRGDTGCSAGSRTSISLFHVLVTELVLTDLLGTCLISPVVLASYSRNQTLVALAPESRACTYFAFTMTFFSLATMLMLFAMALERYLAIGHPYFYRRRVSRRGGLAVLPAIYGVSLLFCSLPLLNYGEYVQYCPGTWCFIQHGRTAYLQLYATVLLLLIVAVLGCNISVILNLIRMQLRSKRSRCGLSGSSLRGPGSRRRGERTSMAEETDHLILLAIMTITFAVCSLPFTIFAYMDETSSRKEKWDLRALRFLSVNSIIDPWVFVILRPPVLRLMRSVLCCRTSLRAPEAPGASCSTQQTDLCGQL
# testSummary: SEAP activity assay on EP2 STEP plate
# measurementParameters: SEAP luminescence, 6-8 hours of stimulation; read-out: STEP cell functional assay EC50 SEAP/EP2
pEC50: −log10 of the molar value.
assayEndpoint: pEC50

compound="O=C(O)CCCCCCN1C(=O)CC[C@@H]1/C=C/[C@@H](O)C#Cc1ccccc1 [Example 7C]" valueobserved="< 5.00"
compound="CCCC#CCC(C)[C@@H](O)/C=C/[C@H]1CCC(=O)N1CCCCCCC(=O)O (mixture of isomers) [Example 3D]" valueobserved="< 5.00"
compound="CC#CCC(C)[C@H](O)/C=C/[C@H]1CCC(=O)N1Cc1ccc(CC(=O)O)cc1 (mixture of isomers) [Example 12C]" valueobserved="< 5.00"
